assay: TD Phase (Groups 1 and 3): plasma and ocular tissue concentrations and pharmacokinetics of Compound 18 and its metabolite Compound 4 after once daily ocular instillation of Compound 18 nanosuspension for 7 days; format: in vivo, New Zealand white rabbits; details: male, New Zealand white, rabbit, topical or ocular, 0.8 mg/kg/day; cornea, Day 7, from mean concentrations
experimental.readout: half-life

1) CCCc1nn(C)c2c(=O)[nH]c(-c3cc(S(=O)(=O)N4CC(CCCO)C4)ccc3OCC)nc12: 2.63 h
2) CCCc1nn(C)c2c(=O)[nH]c(-c3cc(S(=O)(=O)N4CC(CCCO[N+](=O)[O-])C4)ccc3OCC)nc12: 1.33 h

* * *

assay: TD Phase (Groups 1 and 3): plasma and ocular tissue concentrations and pharmacokinetics of Compound 18 and its metabolite Compound 4 after once daily ocular instillation of Compound 18 nanosuspension for 7 days; assay type: in vivo, New Zealand white rabbits; conditions: male, New Zealand white, rabbit, topical or ocular; Lens; Day 7; Compound 18 0.8 mg/kg ocular instillation once daily; Groups 1 and 3
experimental.readout: Cmax (ng/g)

1) CCCc1nn(C)c2c(=O)[nH]c(-c3cc(S(=O)(=O)N4CC(CCCO)C4)ccc3OCC)nc12 [Compound 4]: 18.1

* * *

assay: TD Phase (Groups 1 and 3): plasma and ocular tissue concentrations and pharmacokinetics of Compound 18 and its metabolite Compound 4 after once daily ocular instillation of Compound 18 nanosuspension for 7 days; assay type: in vivo, New Zealand white rabbits; details: male, New Zealand white, rabbit, optic nerve, other: ocular instillation (eye drop), 0.798 mg/kg/day, TD Phase, Group 3, 4 h, Mean; read-out: Final Compound 18 Optic Nerve Conc.
experimental.readout: concentration at 4 h (ng/g)

1) CCCc1nn(C)c2c(=O)[nH]c(-c3cc(S(=O)(=O)N4CC(CCCO[N+](=O)[O-])C4)ccc3OCC)nc12 [Compound 18]: 128

* * *

The compounds listed here are annotated with their Cmax.
assay: TD Phase (Groups 1 and 3): plasma and ocular tissue concentrations and pharmacokinetics of Compound 18 and its metabolite Compound 4 after once daily ocular instillation of Compound 18 nanosuspension for 7 days; assay type: in vivo, New Zealand white rabbits; settings: male, New Zealand white, rabbit, topical or ocular, 0.8 mg/kg/day; optic nerve, Day 7, from mean concentrations
experimental.readout: Cmax (ng/g)

1) CCCc1nn(C)c2c(=O)[nH]c(-c3cc(S(=O)(=O)N4CC(CCCO[N+](=O)[O-])C4)ccc3OCC)nc12: 378
2) CCCc1nn(C)c2c(=O)[nH]c(-c3cc(S(=O)(=O)N4CC(CCCO)C4)ccc3OCC)nc12: 40.2

* * *

experiment: TD Phase (Groups 1 and 3): plasma and ocular tissue concentrations and pharmacokinetics of Compound 18 and its metabolite Compound 4 after once daily ocular instillation of Compound 18 nanosuspension for 7 days; format: in vivo, New Zealand white rabbits; details: male, New Zealand white, rabbit, plasma, other: ocular instillation (eye drop), 0.8 mg/kg/day, TD Phase, Group 3, 8 h, individual animals; read-out: Compound 18 Plasma Conc.
experimental.readout: concentration at 8 h (ng/mL)

1. CCCc1nn(C)c2c(=O)[nH]c(-c3cc(S(=O)(=O)N4CC(CCCO[N+](=O)[O-])C4)ccc3OCC)nc12: 0.0517

* * *

assay: TD Phase (Groups 1 and 3): plasma and ocular tissue concentrations and pharmacokinetics of Compound 18 and its metabolite Compound 4 after once daily ocular instillation of Compound 18 nanosuspension for 7 days; format: in vivo, New Zealand white rabbits; conditions: male, New Zealand white, rabbit, topical or ocular; Aqueous Humor; Day 7; Compound 18 0.8 mg/kg ocular instillation once daily; Groups 1 and 3; read-out: AUC0-8
experimental.readout: AUC(0-t) (ng·h/mL)

1) CCCc1nn(C)c2c(=O)[nH]c(-c3cc(S(=O)(=O)N4CC(CCCO)C4)ccc3OCC)nc12 [Compound 4]: 314

* * *

assay: PK Phase (Group 2): plasma concentrations and pharmacokinetics of Compound 18 and its metabolite Compound 4 after once daily ocular instillation of Compound 18 nanosuspension for 7 days; type: in vivo, New Zealand white rabbits; conditions: male, New Zealand white, rabbit, plasma, topical or ocular, 0.8 mg/kg, plasma, Day 1, Compound 18 0.8 mg/kg ocular instillation; animal 207664
experimental.readout: Tmax (min)

1) CCCc1nn(C)c2c(=O)[nH]c(-c3cc(S(=O)(=O)N4CC(CCCO)C4)ccc3OCC)nc12: 30
2) CCCc1nn(C)c2c(=O)[nH]c(-c3cc(S(=O)(=O)N4CC(CCCO[N+](=O)[O-])C4)ccc3OCC)nc12: 30

* * *

test: TD Phase (Groups 1 and 3): plasma and ocular tissue concentrations and pharmacokinetics of Compound 18 and its metabolite Compound 4 after once daily ocular instillation of Compound 18 nanosuspension for 7 days; type: in vivo, New Zealand white rabbits; conditions: male, New Zealand white, rabbit, topical or ocular; Cornea; Day 7; Compound 18 0.8 mg/kg ocular instillation once daily; Groups 1 and 3
experimental.readout: Tmax (h)

1. CCCc1nn(C)c2c(=O)[nH]c(-c3cc(S(=O)(=O)N4CC(CCCO)C4)ccc3OCC)nc12: 1

* * *

Assay: PK Phase (Group 2): plasma concentrations and pharmacokinetics of Compound 18 and its metabolite Compound 4 after once daily ocular instillation of Compound 18 nanosuspension for 7 days
Type: in vivo, New Zealand white rabbits
Conditions: male, New Zealand white, rabbit, plasma, other: ocular instillation (eye drop), 0.821 mg/kg/day, 2 h; animal 207667; read-out: Day 1 Compound 18 Plasma Concentration
Experimental: This example illustrates the procedures and results for the levels of Compound 18 and its metabolite Compound 4 in plasma and ocular tissues of normotensive rabbits following ocular instillation of Compound 18 once daily for 7 consecutive days. […] Plasma and tissue samples from treated animals (Groups 1-3) were analyzed for Compound 18 and its metabolite Compound 4 concentrations by LC-MS/MS. […] BA Assay: Quantitation Range 0.05 to 100 ng/mL for Compound 18, 0.15 to 100 ng/mL for Compound 4. […]
experimental.readout: concentration at 2 h (ng/mL)

1) CCCc1nn(C)c2c(=O)[nH]c(-c3cc(S(=O)(=O)N4CC(CCCO[N+](=O)[O-])C4)ccc3OCC)nc12: 0.083

* * *

experiment: TD Phase (Groups 1 and 3): plasma and ocular tissue concentrations and pharmacokinetics of Compound 18 and its metabolite Compound 4 after once daily ocular instillation of Compound 18 nanosuspension for 7 days; format: in vivo, New Zealand white rabbits; details: male, New Zealand white, rabbit, topical or ocular; Iris/Ciliary Body; Day 7; Compound 18 0.8 mg/kg ocular instillation once daily; Groups 1 and 3
experimental.readout: half-life

1. CCCc1nn(C)c2c(=O)[nH]c(-c3cc(S(=O)(=O)N4CC(CCCO)C4)ccc3OCC)nc12: 2.11 h

* * *

assay: TD Phase (Groups 1 and 3): plasma and ocular tissue concentrations and pharmacokinetics of Compound 18 and its metabolite Compound 4 after once daily ocular instillation of Compound 18 nanosuspension for 7 days; type: in vivo, New Zealand white rabbits; conditions: male, New Zealand white, rabbit, iris/ciliary body, topical, 0.798 mg/kg/day, TD Phase, Group 1, 1 h, Mean; read-out: Final Compound 18 Iris/Ciliary Body Conc.
experimental.readout: concentration at 1 h (ng/g)

1) CCCc1nn(C)c2c(=O)[nH]c(-c3cc(S(=O)(=O)N4CC(CCCO[N+](=O)[O-])C4)ccc3OCC)nc12 [Compound 18]: 107

* * *

Assay: PK Phase (Group 2): plasma concentrations and pharmacokinetics of Compound 18 and its metabolite Compound 4 after once daily ocular instillation of Compound 18 nanosuspension for 7 days
Assay type: in vivo, New Zealand white rabbits
Conditions: male, New Zealand white, rabbit, plasma, other: ocular instillation (eye drop), 0.821 mg/kg/day, 24 h; animal 207666; read-out: Day 7 Compound 18 Plasma Concentration
Experimental: This example illustrates the procedures and results for the levels of Compound 18 and its metabolite Compound 4 in plasma and ocular tissues of normotensive rabbits following ocular instillation of Compound 18 once daily for 7 consecutive days. […] Plasma and tissue samples from treated animals (Groups 1-3) were analyzed for Compound 18 and its metabolite Compound 4 concentrations by LC-MS/MS. […] BA Assay: Quantitation Range 0.05 to 100 ng/mL for Compound 18, 0.15 to 100 ng/mL for Compound 4. […]
experimental.readout: concentration at 24 h (ng/mL)

1) CCCc1nn(C)c2c(=O)[nH]c(-c3cc(S(=O)(=O)N4CC(CCCO[N+](=O)[O-])C4)ccc3OCC)nc12: 0.0989

* * *

Experiment: TD Phase (Groups 1 and 3): plasma and ocular tissue concentrations and pharmacokinetics of Compound 18 and its metabolite Compound 4 after once daily ocular instillation of Compound 18 nanosuspension for 7 days
Format: in vivo, New Zealand white rabbits
Settings: male, New Zealand white, rabbit, topical or ocular; Retina; Day 7; Compound 18 0.8 mg/kg ocular instillation once daily; Groups 1 and 3
Procedure: This example illustrates the procedures and results for the levels of Compound 18 and its metabolite Compound 4 in plasma and ocular tissues of normotensive rabbits following ocular instillation of Compound 18 once daily for 7 consecutive days. […] Plasma and tissue samples from treated animals (Groups 1-3) were analyzed for Compound 18 and its metabolite Compound 4 concentrations by LC-MS/MS. […] BA Assay: Quantitation Range 0.05 to 100 ng/mL for Compound 18, 0.15 to 100 ng/mL for Compound 4. […]
experimental.readout: Cmax

1. CCCc1nn(C)c2c(=O)[nH]c(-c3cc(S(=O)(=O)N4CC(CCCO)C4)ccc3OCC)nc12 [Compound 4]: 50.9 ng/g
